- experimental.target: mouse BLyS protein (mouse, UniProt Q9WU72 69-309)
- Sequence (Q9WU72 69-309): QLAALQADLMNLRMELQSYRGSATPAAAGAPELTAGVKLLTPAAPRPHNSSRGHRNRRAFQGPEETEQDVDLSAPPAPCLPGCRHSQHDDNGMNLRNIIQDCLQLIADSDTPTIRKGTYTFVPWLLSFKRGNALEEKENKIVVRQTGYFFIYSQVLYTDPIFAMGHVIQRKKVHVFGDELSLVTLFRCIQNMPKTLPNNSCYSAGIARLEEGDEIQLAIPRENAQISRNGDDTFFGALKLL
- assay: cell-based or functional assay
Please respond with reported mouse B lymphocyte proliferation (OD450 nm), antibody 0.0064 nM for every item in the list.
Give bare numbers, in OD450 nm.

Can you give me mouse B lymphocyte proliferation (OD450 nm), antibody 0.0064 nM for all of these, one by one?
1. L1D12 (antibody, V domains shown, From a human naive scFv phage library; also called human BLyS antibody L1D12; LID12) VH: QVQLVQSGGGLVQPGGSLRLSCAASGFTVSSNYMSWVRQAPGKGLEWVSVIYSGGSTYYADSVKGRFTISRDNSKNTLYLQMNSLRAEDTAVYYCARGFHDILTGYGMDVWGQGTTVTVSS VL: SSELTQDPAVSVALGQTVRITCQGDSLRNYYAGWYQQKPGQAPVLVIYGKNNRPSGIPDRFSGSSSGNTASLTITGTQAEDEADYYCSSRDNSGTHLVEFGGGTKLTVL
2. 67A2E1D10 (antibody, V domains shown, Mouse hybridoma monoclonal antibody purified on Protein G) VH: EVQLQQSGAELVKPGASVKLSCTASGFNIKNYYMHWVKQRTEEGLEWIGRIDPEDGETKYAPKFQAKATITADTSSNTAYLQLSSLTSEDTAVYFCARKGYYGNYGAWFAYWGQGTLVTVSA VL: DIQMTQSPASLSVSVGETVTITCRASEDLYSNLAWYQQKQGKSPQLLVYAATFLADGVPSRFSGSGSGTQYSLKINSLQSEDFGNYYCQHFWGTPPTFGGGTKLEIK

1. 2500
2. 2110

Provide mouse B lymphocyte proliferation (OD450 nm), antibody 0.0064 nM value for the following binder: 97A3C2H4 (antibody, V domains shown, Mouse hybridoma monoclonal antibody purified on Protein G) VH: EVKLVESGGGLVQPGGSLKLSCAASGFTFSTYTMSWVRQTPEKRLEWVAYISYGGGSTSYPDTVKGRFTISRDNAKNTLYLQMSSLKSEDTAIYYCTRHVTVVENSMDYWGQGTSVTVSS VL: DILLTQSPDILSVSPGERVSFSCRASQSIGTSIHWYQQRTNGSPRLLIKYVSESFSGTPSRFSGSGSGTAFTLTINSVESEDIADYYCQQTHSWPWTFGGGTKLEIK 2250
